- Experiment: Oral PK profile in mice, plasma drug concentrations
- Assay type: in vivo, BALB/c mice
- Condition set: male, BALB/c, mouse, plasma, oral, 3 mg/kg, 3 mg/kg oral gavage, 30 min post-dose, individual mice #1-#3
Metric name: concentration at 30 min (nM)
Give bare numbers, in nM.

>  <Compound>
CC1([C@H](N)C(=O)N2CCC[C@H]2B(O)O)CCCCC1 (relative stereo) [ARI-4175CH]

>  <Unit symbol>
nM

>  <Numeric readout>
240

$$$$

Which concentration at 30 min is reported for this compound? N[C@H](C(=O)N1CCC[C@H]1B(O)O)C12CC3CC(CC(C3)C1)C2 (relative stereo) [ARI-5544, Gly(1-adamantyl)-boroPro]
110

###

- Assayed system: recombinant human dipeptidyl peptidase II (DPPII) (Homo sapiens (Human), UniProt Q9UHL4)
- Experiment: In vitro inhibition assay, dipeptidyl peptidase II
- Assay type: biochemical
- Condition set: DPP2
Metric name: IC50 (nM)
Numbers only, in nM.

>  <Compound>
N[C@H](C(=O)N1CCC[C@H]1B(O)O)C12CC3CC(CC(C3)C1)C2 (relative stereo) [ARI-5544, Gly(1-adamantyl)-boroPro]

>  <Assayed system>
recombinant human dipeptidyl peptidase II (DPPII) (Homo sapiens (Human), UniProt Q9UHL4)

>  <Unit symbol>
nM

>  <Numeric readout>
27

$$$$
>  <Compound>
N[C@H](C(=O)N1CCC[C@H]1B(O)O)C12CC3CC(CC(O)(C3)C1)C2 (relative stereo) [ARI-3102A]

>  <Assayed system>
recombinant human dipeptidyl peptidase II (DPPII) (Homo sapiens (Human), UniProt Q9UHL4)

>  <Unit symbol>
nM

>  <Numeric readout>
81

$$$$
>  <Compound>
CC1(C)CN[C@@H]1C(=O)N1CCC[C@H]1B(O)O (relative stereo) [compound 5362]

>  <Assayed system>
recombinant human dipeptidyl peptidase II (DPPII) (Homo sapiens (Human), UniProt Q9UHL4)

>  <Unit symbol>
nM

>  <Numeric readout>
67

$$$$
>  <Compound>
CC1(C)CCCN[C@@H]1C(=O)N1CCC[C@H]1B(O)O (relative stereo) [compound 5349]

>  <Assayed system>
recombinant human dipeptidyl peptidase II (DPPII) (Homo sapiens (Human), UniProt Q9UHL4)

>  <Unit symbol>
nM

>  <Numeric readout>
610

$$$$
>  <Compound>
CC1(C)CCN[C@@H]1C(=O)N1CCC[C@H]1B(O)O (relative stereo) [compound 5363]

>  <Assayed system>
recombinant human dipeptidyl peptidase II (DPPII) (Homo sapiens (Human), UniProt Q9UHL4)

>  <Unit symbol>
nM

>  <Numeric readout>
110

$$$$

Give me IC50 for each of these compounds, listed below.
1. N[C@H](C(=O)N1CCC[C@H]1B(O)O)C1(C(F)(F)F)CC1 [compound 4949]
2. CC1([C@H](N)C(=O)N2CCC[C@H]2B(O)O)CCCCC1 (relative stereo) [ARI-4175CH]

1: 39; 2: 54

###

- Assayed system: recombinant human dipeptidyl peptidase II (DPPII) (Homo sapiens (Human), UniProt Q9UHL4)
- Experiment: In vitro inhibition assay, dipeptidyl peptidase II
- Assay type: biochemical
- Condition set: DPP2
Please respond with reported pIC50 for every item in the list.
Give bare numbers, as −log10 of the molar value.

Consider the worked cases shown below.
>  <Compound>
CC(C)(F)[C@H](N)C(=O)N1CCC[C@H]1B(O)O (relative stereo)

>  <Metric name>
pIC50

>  <Numeric readout>
7.17

$$$$
>  <Compound>
CC1([C@H](N)C(=O)N2CCC[C@H]2B(O)O)CC1 (relative stereo)

>  <Metric name>
pIC50

>  <Numeric readout>
7.47

$$$$
>  <Compound>
N[C@H](C(=O)N1CCC[C@H]1B(O)O)C12CC3CC(CC(F)(C3)C1)C2

>  <Metric name>
pIC50

>  <Numeric readout>
7.24

$$$$

Shifting focus to the compound that follows.
Given the entry CC1([C@H](N)C(=O)N2CCC[C@H]2B(O)O)CCCC1 (relative stereo) [4175CP] , what pIC50 was observed with recombinant human dipeptidyl peptidase II (DPPII) (Homo sapiens (Human), UniProt Q9UHL4)?
8.04

###

- System: G-CSF
- Condition set: 20 μg/animal PO
Metric name: Average [G-CSF] at 6 hrs (pg/mL)
Give bare numbers, in pg/mL.

Consider the worked cases shown below.
>  <Item smiles>
N[C@H](C(=O)N1CCC[C@H]1B(O)O)C1CCCCC1

>  <Numeric readout>
20000

$$$$
>  <Item smiles>
CC[C@H](C)[C@H](N)C(=O)N1CCC[C@H]1B(O)O

>  <Numeric readout>
5000

$$$$
>  <Item smiles>
CC(C)[C@H](N)C(=O)N1CCC[C@H]1B(O)O

>  <Numeric readout>
55000

$$$$

Shifting focus to the compound that follows.
Which Average [G-CSF] at 6 hrs is reported for this compound? CC(C)(C)[C@H](N)C(=O)N1CCC[C@H]1B(O)O
19000

###

- Experiment: Oral PK profile in mice, plasma drug concentrations
- Type: in vivo, BALB/c mice
- Condition set: male, BALB/c, mouse, plasma, oral, 3 mg/kg, 3 mg/kg oral gavage, 40 min post-dose, individual mice #1-#3
Metric name: concentration at 40 min (nM)
Give bare numbers, in nM.

>  <Compound>
CC1([C@H](N)C(=O)N2CCC[C@H]2B(O)O)CCCCC1 (relative stereo) [ARI-4175CH]

>  <concentration at 40 min [nM]>
170

$$$$

Shifting focus to the compound that follows.
Which concentration at 40 min is reported for this compound? N[C@H](C(=O)N1CCC[C@H]1B(O)O)C12CC3CC(CC(C3)C1)C2 (relative stereo)
120

###

- Experiment: Oral PK profile in mice, plasma drug concentrations
- Format: in vivo, BALB/c mice
- Condition set: male, BALB/c, mouse, plasma, oral, 3 mg/kg, 3 mg/kg oral gavage, 20 min post-dose, individual mice #1-#3
Metric name: concentration at 20 min
Output should be the measured figure followed by the unit it is expressed in.

>  <Compound>
N[C@H](C(=O)N1CCC[C@H]1B(O)O)C12CC3CC(CC(C3)C1)C2 (relative stereo)

>  <concentration at 20 min>
140 nM

$$$$

Which concentration at 20 min is reported for this compound? CC1([C@H](N)C(=O)N2CCC[C@H]2B(O)O)CCCCC1 (relative stereo) [ARI-4175CH]
230 nM

###

- Experiment: Oral PK profile in mice, plasma drug concentrations
- Assay type: in vivo, BALB/c mice
- Condition set: male, BALB/c, mouse, plasma, oral, 3 mg/kg, 3 mg/kg oral gavage, 60 min post-dose, individual mice #1-#3
Metric name: concentration at 60 min (nM)
Give bare numbers, in nM.

Which concentration at 60 min is reported for this compound? N[C@H](C(=O)N1CCC[C@H]1B(O)O)C12CC3CC(CC(C3)C1)C2 (relative stereo)
80

###

- Assayed system: DPP7 (Homo sapiens (Human))
- Experiment: EnPlex assay DPP7
- Assay type: biochemical
pIC50: −log10 of the molar value.
Please respond with reported pIC50 for every item in the list.

>  <Compound>
N[C@H](C(=O)N1CCC[C@H]1B(O)O)C12CC3CC(CC(O)(C3)C1)C2 (relative stereo) [ARI-3102A]

>  <Metric name>
pIC50

>  <Result>
< 7.00

$$$$

Shifting focus to the compound that follows.
Which pIC50 is reported for this compound? CC1([C@H](N)C(=O)N2CCC[C@H]2B(O)O)CCCCC1 (relative stereo) [ARI-4175CH]
< 7.00

###

Please respond with reported IC50 for every item in the list.
- System: macrophages
- Experiment: Pyroptosis of macrophages in cell culture
- Assay type: cell-based
- Condition set: Macrophage; Example 2 table; unit inferred

Consider the worked cases shown below.
>  <Compound>
CN(CB(O)O)C(=O)[C@@H](N)CCC(=O)O [compound 2408]

>  <Metric name>
IC50

>  <Result>
> 10 µM

$$$$
>  <Compound>
C[C@H](N)C(=O)N1CCC[C@H]1B(O)O [compound 1129]

>  <Metric name>
IC50

>  <Result>
> 10 µM

$$$$

Shifting focus to the compound that follows.
Given the entry CC(C)[C@H](N)C(=S)N1CCC[C@H]1B(O)O [compound 2401] , what IC50 was observed with macrophages?
> 20 µM
